# subject of test: Runt-related transcription factor 1 (Homo sapiens) + Core-binding factor subunit beta (Homo sapiens) (UniProt Q01196+Q13951)
# Sequence (Q01196 whole entry, looked up, the tested form may be a part): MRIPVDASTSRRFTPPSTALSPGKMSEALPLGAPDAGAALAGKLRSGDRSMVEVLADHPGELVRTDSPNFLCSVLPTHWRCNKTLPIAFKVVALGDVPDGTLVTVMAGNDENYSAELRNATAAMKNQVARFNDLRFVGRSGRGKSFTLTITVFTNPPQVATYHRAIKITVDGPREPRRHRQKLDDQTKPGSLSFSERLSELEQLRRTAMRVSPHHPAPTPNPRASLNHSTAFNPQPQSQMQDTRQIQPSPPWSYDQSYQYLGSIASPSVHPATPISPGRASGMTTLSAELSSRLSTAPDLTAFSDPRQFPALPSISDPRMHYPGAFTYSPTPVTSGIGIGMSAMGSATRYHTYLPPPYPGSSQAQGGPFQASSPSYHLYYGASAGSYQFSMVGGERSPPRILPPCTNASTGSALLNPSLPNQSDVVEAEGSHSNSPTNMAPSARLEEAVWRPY
# Sequence (Q13951 whole entry, looked up, the tested form may be a part): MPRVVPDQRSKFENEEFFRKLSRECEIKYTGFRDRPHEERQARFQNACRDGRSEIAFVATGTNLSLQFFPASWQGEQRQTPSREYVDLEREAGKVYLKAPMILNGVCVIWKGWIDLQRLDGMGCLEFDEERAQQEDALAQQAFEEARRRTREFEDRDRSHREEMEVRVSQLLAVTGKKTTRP
# procedure text: disruptors of Runt domain/CBFb-SMMHC interaction – biochemical, FRET, Cerulean-Runt, Venus-CBFb-SMMHC, uHTS, primary screen (AID 1434);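 also: 0% = DMSO wells and 100% = wells with excess untagged CBFb-SMMHC; inhibitors lower the FRET ratio by blocking Runt binding to CBFb-SMMHC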
# condition summary: Cerulean-Runt/Venus-CBFb-SMMHC FRET ratio 530/480, 1 h; retest duplicate average; at 20 µM; stronger effect = higher value
About 1,600 (0.73%) of roughly 220,000 compounds were called active. The full list was thinned out, with actives kept by preference.
Quick reference for inhibition among some compounds
Write the value in % as a bare number.

COC(=O)C1=CN(C)C=C(C(=O)OC)C1c1ccc(Cl)cc1Cl
91.8
COc1c(O)ccc2c1CN1CCc3cc4c(cc3C1C2)OCO4 (configuration not stated)
110
COCc1cc(=O)oc2cc(NS(=O)(=O)c3ccc(C)cc3)ccc12
71.8

q: Looking for the measured inhibition of CCOC(=O)CNC(=O)CSc1nnc(-c2cccc(OC)c2)n1CC , can you help?
a: 67.7

q: I have this compound here, CCCc1cc(=S)n2c([nH]c3ccccc32)c1C#N , and I need its recorded inhibition.
a: 153

q: Using the record for Cc1cc(C)c2nc3nc(C)cc(C)c3c(N)c2c1 , report its inhibition.
a: 71.5

q: What inhibition value was documented for this compound, COc1ccc(CNC(=O)c2cc3c(=O)n4ccccc4nc3n(CC3CCCO3)c2=N)cc1 (configuration not stated) ?
a: 159

q: Form field: reported inhibition of CCOC(=O)c1cc2c(=O)n3ccccc3nc2n(CC(C)C)c1=NC(=O)c1c(-c2c(F)cccc2Cl)noc1C
a: 58.3

Data origin: PubChem BioAssay AID1434
